- Tested On: Multidrug resistance-associated protein 1 (Homo sapiens)
- Experiment Description: viability protection against doxorubicin, MRP-1 line – cell-based, doxorubicin EC50 shift, dose response (AID 844)
Assign labels as follows, please: y for EC50 below 6 µM; n for EC50 equal to or exceeding 6 µM.

O=C(Cc1sc(=O)n(-c2ccccc2)c1O)Nc1ccccc1; n
COc1ccc(CN=Nc2cc(OC)ncn2)cc1; y
COc1ccc(-n2c(O)c(CC(=O)Nc3ccc(F)cc3)n(CCc3cccs3)c2=O)cc1; y
O=C(O)c1cccc(-n2c(O)c3c(c2O)CC(Cl)=CC3)c1; n
CCN(CC)S(=O)(=O)c1ccc(N=NC(C#N)C#N)cc1; y
CCOC(=O)C1C(C)=Nc2sc(C(=O)c3ccc(C)cc3)c(N)c2C1c1ccc(C(=O)OC)cc1 (stereo not drawn); y

Hello, I'm reviewing records and need to know if EC50 of O=C1Nc2ccc(F)cc2C12NC(Cc1ccc(O)cc1)c1c2c(O)n(-c2ccc(F)cc2)c1O (stereo not drawn) is below 6 µM. Could you check? n

Hello, I'm reviewing records and need to know if EC50 of `O=c1[nH]c2ccccc2n1C1CCN(c2cc(O)n(-c3ccc(F)cc3)c2O)CC1` is below 6 µM. Could you check? n

Hello, I'm reviewing records and need to know if EC50 of `Cc1cc(N=NCc2ccccc2Cl)nc(NCc2ccccc2)n1` is below 6 µM. Could you check? y

Hello, I'm reviewing records and need to know if EC50 of CCOC(=O)C1C(C)=Nc2sc(C(=O)c3ccc(OC)cc3)c(N)c2C1c1ccc(C(=O)OC)cc1 (stereo not drawn) is below 6 µM. Could you check? y

Hello, I'm reviewing records and need to know if EC50 of N#CC1C(=N)SC(=N)C(C#N)C1c1cccc(O)c1 (stereo not drawn) is below 6 µM. Could you check? y

Hello, I'm reviewing records and need to know if EC50 of `C=CCN(C(=O)Nc1ccc(Cl)cc1)c1cc(O)n(-c2ccc(OC)cc2)c1O` is below 6 µM. Could you check? y

Hello, I'm reviewing records and need to know if EC50 of `N#Cc1ccc(-n2c(O)c3[nH][nH]c(C(=O)c4ccc5ccccc5n4)c-3c2=O)cc1` is below 6 µM. Could you check? n

###

- Tested On: Multidrug resistance-associated protein 1 (Homo sapiens)
- Experiment Description: viability protection against doxorubicin, MRP-1 line – cell-based, doxorubicin EC50 shift, dose response (AID 844)
Measured EC50, listed per entry.
Expressed in µM, but write only the number.

Example results:
Cc1ccccc1NC(=O)Cc1sc(=O)n(-c2ccccc2)c1O; 7.29
C=C(C)C(=O)Nc1cc(=O)n(-c2ccccc2)[nH]1; 5.63

What does the data say about its EC50? Entry: `O=C1Nc2ccccc2[C@@]12N[C@@H](Cc1ccc(O)cc1)c1c2c(O)n(-c2ccc(F)cc2)c1O` 7.87

What does the data say about its EC50? Entry: `O=S(=O)(c1ccc(Cl)cc1Br)N1CCCCC1` 5.42

What does the data say about its EC50? Entry: `O=CC(=NNc1ccccc1)C(=O)c1ccncc1` 7.54

What does the data say about its EC50? Entry: `Oc1cc(N2CCC(O)(c3ccc(Br)cc3)CC2)c(O)n1-c1ccc(Cl)cc1` 7.39

What does the data say about its EC50? Entry: `COc1ccc(CN2C(=O)C(=CNc3ccc(OC)cc3)c3ccccc3C2=O)cc1` 7.24

What does the data say about its EC50? Entry: COc1cccc(C2C(C(=O)Nc3nc4ccccc4s3)=C(C)N=C3CC(C)(C)CC(=O)C32)c1OC (centres undefined) 1.6

What does the data say about its EC50? Entry: `C=CCc1c(C)nc(-c2ccccc2)nc1N=NCc1ccccc1` 4.7

What does the data say about its EC50? Entry: `O=C(Nc1nc(O)cs1)c1ccccc1` 3.78

###

- Tested On: Multidrug resistance-associated protein 1 (Homo sapiens, UniProt P33527)
- Sequence (P33527 whole entry): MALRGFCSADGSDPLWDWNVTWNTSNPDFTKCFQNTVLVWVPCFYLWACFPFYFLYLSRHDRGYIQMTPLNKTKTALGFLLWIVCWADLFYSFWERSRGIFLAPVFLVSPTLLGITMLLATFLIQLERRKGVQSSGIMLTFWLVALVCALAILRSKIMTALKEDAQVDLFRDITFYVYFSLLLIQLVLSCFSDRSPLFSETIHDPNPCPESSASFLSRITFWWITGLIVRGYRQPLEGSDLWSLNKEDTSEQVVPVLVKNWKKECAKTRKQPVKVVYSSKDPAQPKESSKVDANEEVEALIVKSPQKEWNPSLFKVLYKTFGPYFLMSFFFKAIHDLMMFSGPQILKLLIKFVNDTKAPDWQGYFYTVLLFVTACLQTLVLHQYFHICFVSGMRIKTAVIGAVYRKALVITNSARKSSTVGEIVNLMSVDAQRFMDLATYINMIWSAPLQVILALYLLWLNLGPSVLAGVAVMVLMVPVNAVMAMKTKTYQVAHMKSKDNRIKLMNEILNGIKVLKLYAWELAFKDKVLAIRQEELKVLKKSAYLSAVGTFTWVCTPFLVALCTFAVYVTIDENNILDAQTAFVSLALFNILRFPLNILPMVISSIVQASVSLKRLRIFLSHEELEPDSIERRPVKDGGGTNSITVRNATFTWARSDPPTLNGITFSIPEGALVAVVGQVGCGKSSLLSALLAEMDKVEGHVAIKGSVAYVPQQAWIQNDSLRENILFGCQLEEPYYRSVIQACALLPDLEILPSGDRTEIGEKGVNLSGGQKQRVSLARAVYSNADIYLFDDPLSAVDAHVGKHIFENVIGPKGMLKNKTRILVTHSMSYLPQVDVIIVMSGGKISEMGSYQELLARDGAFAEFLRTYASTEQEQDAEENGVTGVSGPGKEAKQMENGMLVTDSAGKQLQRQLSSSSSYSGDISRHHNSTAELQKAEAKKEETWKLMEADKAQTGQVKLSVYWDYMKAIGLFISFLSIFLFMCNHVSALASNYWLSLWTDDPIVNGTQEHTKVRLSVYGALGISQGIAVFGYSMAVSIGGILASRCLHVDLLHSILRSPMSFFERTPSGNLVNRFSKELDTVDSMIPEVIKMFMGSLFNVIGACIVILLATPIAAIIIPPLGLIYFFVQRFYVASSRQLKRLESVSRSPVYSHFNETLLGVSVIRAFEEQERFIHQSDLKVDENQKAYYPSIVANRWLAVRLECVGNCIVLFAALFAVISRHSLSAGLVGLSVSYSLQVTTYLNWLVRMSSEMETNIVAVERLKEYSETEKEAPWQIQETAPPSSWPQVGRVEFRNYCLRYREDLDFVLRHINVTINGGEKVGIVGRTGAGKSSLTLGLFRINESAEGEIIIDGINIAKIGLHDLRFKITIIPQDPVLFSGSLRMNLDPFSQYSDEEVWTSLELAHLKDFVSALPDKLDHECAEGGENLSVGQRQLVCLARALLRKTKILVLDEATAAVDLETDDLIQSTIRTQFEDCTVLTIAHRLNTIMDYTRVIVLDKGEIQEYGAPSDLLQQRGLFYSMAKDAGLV
- Experiment Description: viability protection against doxorubicin, MRP-1 line – cell-based, doxorubicin EC50 shift, dose response (AID 844)
Quantity: pEC50
The read-out pEC50 is expressed as -log10 of concentration in moles per litre.

What does the data say about its pEC50? Entry: COc1ccc(NC(=O)Cc2c(O)n(-c3ccc(Cl)cc3)c(=S)n2NC(=O)c2cccc(F)c2)cc1 [MLS000590171] 5.44

What does the data say about its pEC50? Entry: `O=C1CCCC(=O)C1=NNc1ccc2c(c1)OCO2` 5.20

What does the data say about its pEC50? Entry: COc1ccccc1C1C(C(=O)c2sc(C)nc2C)C(=O)C(=O)N1CCN1CCOCC1 (stereo not given) 5.42

###

- Tested On: Multidrug resistance-associated protein 1 (Homo sapiens)
- Experiment Description: viability protection against doxorubicin, MRP-1 line – cell-based, doxorubicin EC50 shift, dose response (AID 844)
Measured pEC50, listed per entry.
The read-out pEC50 is expressed as -log10 of concentration in moles per litre.

Example results:
Cc1cc(C)nc(N=NCc2cccc3ccccc23)n1; 5.27
Oc1csc(=S)n1N=C1CCCCCC1; 5.30
Cc1cccc(Cc2sc(Nc3ccccn3)nc2O)c1; 5.21

Form: Entry = `COc1ccc(-n2c(O)cc(N3CCC(O)(c4cccc(C(F)(F)F)c4)CC3)c2O)cc1` | System = Multidrug resistance-associated protein 1 (Homo sapiens) | pEC50 = ____ 5.32

Form: Entry = `Oc1cc(N2CCN(c3nc4ccccc4s3)CC2)c(O)n1-c1ccc(F)cc1` | System = Multidrug resistance-associated protein 1 (Homo sapiens) | pEC50 = ____ 5.19

Form: Entry = CCOC(=O)C1C(C)=Nc2ncnn2C1c1cccnc1 (centres undefined) | System = Multidrug resistance-associated protein 1 (Homo sapiens) | pEC50 = ____ 5.35

Form: Entry = `Oc1nc(Nc2ccccc2)sc1Cc1cccc(Cl)c1Cl` | System = Multidrug resistance-associated protein 1 (Homo sapiens) | pEC50 = ____ 5.18

Form: Entry = CCSC(C)CC1Cc2onc(CC)c2C(N=O)C1 (centres undefined) | System = Multidrug resistance-associated protein 1 (Homo sapiens) | pEC50 = ____ 5.16

Form: Entry = `COc1ccc(NC(=O)Cc2c(O)n(-c3ccc(F)cc3)c(=S)n2NC(=O)c2ccccc2)cc1` | System = Multidrug resistance-associated protein 1 (Homo sapiens) | pEC50 = ____ 5.37

###

- Tested On: Multidrug resistance-associated protein 1 (Homo sapiens, UniProt P33527)
- Experiment Description: viability protection against doxorubicin, MRP-1 line – cell-based, doxorubicin EC50 shift, dose response (AID 844)
Quantity: EC50

Example results:
COc1ccc(N2C(=S)C(C#N)C(=O)NC2c2ccco2)cc1 (configuration not stated); 2.2 µM
COc1ccc(CN=Nc2cc(C)nc(-n3nc(C)cc3C)n2)cc1; 0.656 µM
O=C1C=CC([N+](=O)[O-])=CC1/C=N/n1cnc2ccccc21 (configuration not stated); 3.61 µM
O=C1CC(=O)CC(c2ccc(Cl)cc2)C1; 5.6 µM
CCc1ccc(C(C)N=Nc2cc(Cl)nc(C)n2)cc1 (configuration not stated); 3.75 µM
Cc1cc(=O)oc2c1ccc1oc(C(N=O)c3ccccc3)c(C)c12 (configuration not stated); 7.02 µM
C=CCc1c(C)nc(-c2ccccc2)nc1N=NC(C)c1ccc(N)cc1 (configuration not stated); 6.99 µM
COc1ccc(-n2c(O)cc(N3CCC(n4c(=O)[nH]c5ccccc54)CC3)c2O)cc1; 5.64 µM

What does the data say about its EC50? Entry: `CC1CCN(S(=O)(=O)c2ccc(Br)s2)CC1` 3.52 µM

What does the data say about its EC50? Entry: `O=C(CCCCl)Nc1cc(=O)n(-c2ccccc2)[nH]1` 8.43 µM

What does the data say about its EC50? Entry: COC(=O)C1=C(C)N=C(C)C(C(=O)OC)C1c1ccccc1OCc1c(C)n[o+]n1[O-] (configuration not stated) 5.32 µM

What does the data say about its EC50? Entry: `O=C(CC=NNC(=O)c1ccccc1)c1ccc(Br)cc1` 2.86 µM

What does the data say about its EC50? Entry: `Oc1nc(Nc2ccc(Cl)cc2)sc1Cc1cccc(Cl)c1Cl` 6.41 µM

What does the data say about its EC50? Entry: CC1=CC([N+](=O)[O-])=CC(C=NNC(=O)c2cc(C)n[nH]2)C1=O (configuration not stated) 2.87 µM

What does the data say about its EC50? Entry: `Oc1nc(Nc2ccc(Cl)cc2)sc1Cc1cc(Cl)ccc1Cl` 5.86 µM

What does the data say about its EC50? Entry: O=C1c2ccccc2SC1/C=N/c1cc([N+](=O)[O-])ccc1O (configuration not stated) 0.457 µM

What does the data say about its EC50? Entry: `Cc1ccc(-n2[nH]c(C)c(C(c3ccccc3O)c3c(C)[nH]n(-c4ccc(C)cc4C)c3=O)c2=O)c(C)c1` 3.81 µM

What does the data say about its EC50? Entry: `Cc1cc(N=NCc2ccc(O)cc2O)nc(-n2nc(C)cc2C)n1` < 0.195 µM

What does the data say about its EC50? Entry: `CCCCCCN1C(=O)C(=Cc2c[nH]nc2-c2ccccc2)SC1=S` 4.16 µM

What does the data say about its EC50? Entry: C=CCc1c(C)nc(-c2ccccc2)nc1N=NC(C)c1ccccc1 (configuration not stated) 2.34 µM

What does the data say about its EC50? Entry: `COc1cccc(C=Nn2c(O)csc2=S)c1O` 7.08 µM

What does the data say about its EC50? Entry: `Oc1cc(N2CCC(c3nc4ccccc4o3)CC2)c(O)n1-c1cc(Cl)cc(Cl)c1` 7.36 µM

What does the data say about its EC50? Entry: `N#CC(C#N)N=Nc1ccc(S(=O)(=O)N2CCCC2)cc1` 5.88 µM

What does the data say about its EC50? Entry: `Cc1cccc(NC(=O)Cc2sc(=O)n(-c3ccccc3)c2O)c1` 5.15 µM

What does the data say about its EC50? Entry: `O=C(O)c1ccc(N=NCc2ccc(F)c(F)c2)cc1` 7.07 µM

What does the data say about its EC50? Entry: COC1(OC)C(O)CCC(N=O)C1N=O (configuration not stated) 4.16 µM

What does the data say about its EC50? Entry: `O=[N+]([O-])c1ccc(N=NCc2ccccc2)c(F)c1` 3.44 µM
